Answer each item with its documented pIC50.
target: NRAS Q61R (Homo sapiens, UniProt P01111+P62937, Q61R); experiment: Ras-Raf disruption / FRET / MOA assay (BRAF RBD); assay type: biochemical
Sequence (P01111 whole entry Q61R): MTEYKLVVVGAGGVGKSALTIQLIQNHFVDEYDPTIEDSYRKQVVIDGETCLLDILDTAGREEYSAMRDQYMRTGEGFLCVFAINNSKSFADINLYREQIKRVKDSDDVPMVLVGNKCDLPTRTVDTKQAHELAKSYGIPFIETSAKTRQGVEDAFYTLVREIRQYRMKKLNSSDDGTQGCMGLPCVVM
Sequence (P62937 whole entry): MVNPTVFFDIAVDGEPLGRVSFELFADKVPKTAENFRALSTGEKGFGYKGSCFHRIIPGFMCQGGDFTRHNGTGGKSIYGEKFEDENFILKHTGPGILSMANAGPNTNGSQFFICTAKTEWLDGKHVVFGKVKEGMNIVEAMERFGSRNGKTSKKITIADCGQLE
pIC50: −log10 of the molar value.

{"compound": "CCn1c(-c2cccnc2[C@H](C)OC)c2c3cc(ccc31)-c1cc(O)cc(c1)C[C@H](NC(=O)[C@H](C(C)C)N(C)C(=O)C13CCC(CC1)N3C(=O)[C@H]1CN1)C(=O)N1CCC[C@H](N1)C(=O)OCC(C)(C)C2", "endpoint": "pIC50", "measured.result": "6.00 to 7.00"}

Go through the items and report each one's pIC50.
1. CCn1c(-c2cccnc2[C@H](C)OC)c2c3cc(ccc31)-c1cc(O)cc(c1)C[C@H](NC(=O)[C@H](C1CCCC1)N(C)C(=O)CN(C)C(=O)[C@H]1N[C@H]1C1(F)CC1)C(=O)N1CCC[C@H](N1)C(=O)OCC(C)(C)C2
2. CCn1c(-c2cccnc2[C@H](C)OC)c2c3cc(ccc31)-c1cc(O)cc(c1)C[C@H](NC(=O)[C@H](C(C)C)N(C)C(=O)CN(C)C(=O)[C@H]1CN1CCCN1CCCC1=O)C(=O)N1CCC[C@H](N1)C(=O)OCC(C)(C)C2 (stereo partly drawn)

6.00 to 7.00
6.00 to 7.00

* * *

biological target: NRAS G12C (Homo sapiens, UniProt P01111+P62937, G12C); assay: Disruption of BRAF RBD interaction with Ras (FRET / MOA assay, with Cyclophilin A); assay type: biochemical; settings: NRAS G12C; read-out: NRAS G12C FRET data IC50
Sequence (P01111 whole entry G12C): as the sequence (P01111 whole entry Q61R) above, with G12C, R61Q counted along it
Sequence (P62937 whole entry): as the sequence (P62937 whole entry) above
Answer each item with its documented IC50.

{"molecule": "CCn1c(-c2cc(C3CCN(C)CC3)cnc2[C@H](C)OC)c2c3cc(ccc31)-c1csc(n1)C[C@H](NC(=O)[C@H](C(C)C)N(C)C(=O)N1CCOCC1)C(=O)N1CCC[C@H](N1)C(=O)OCC(C)(C)C2 (atropisomer, axis not shown)", "measured.on": "NRAS G12C (Homo sapiens, UniProt P01111+P62937, G12C)", "IC50": "10 to 100 nM"}

Record CCn1c(-c2cccnc2[C@H](C)OC)c2c3cc(ccc31)-c1cc(O)cc(c1)C[C@H](NC(=O)C(C1CC1)C1CC1)C(=O)N1CCC[C@H](N1)C(=O)OCC(C)(C)C2 : what is its IC50 with NRAS G12C (Homo sapiens, UniProt P01111+P62937, G12C)?
100 to 1000 nM

* * *

Please provide measured IC50 for the entries that follow.
target: NRAS Q61R (Homo sapiens, UniProt P01111+P62937, Q61R); assay: Disruption of BRAF RBD interaction with Ras (FRET / MOA assay, with Cyclophilin A); type: biochemical; conditions: NRAS Q61R; read-out: NRAS Q61R FRET data IC50

{"compound": "C=CC(=O)Nc1cnc(OC[C@H](C(=O)N[C@H]2Cc3cccc(c3)-c3ccc4c(c3)c(c(-c3cccnc3[C@H](C)OC)n4CC)CC(C)(C)COC(=O)C3CCCN(N3)C2=O)C(C)C)n1C (some centres unmarked)", "IC50": "1000 to 10000 nM"}

Consider the following items and state reported IC50 for each.
1. CC#CC(=O)N1CC[C@H](C(=O)N(C)[C@H](C(=O)N[C@H]2Cc3nc(cs3)-c3ccc4c(c3)c(c(-c3cccnc3[C@H](C)OC)n4CC)CC(C)(C)COC(=O)[C@@H]3CCCN(N3)C2=O)C(C)C)C1
2. CCn1c(-c2cccnc2[C@H](C)OC)c2c3cc(ccc31)-c1csc(n1)C[C@H](NC(=O)[C@H](C(C)C)N(C)C(=O)N1CC(OC(F)F)C1)C(=O)N1CCC[C@H](N1)C(=O)OCC(C)(C)C2 (atropisomer, axis not shown)
3. CCn1c(-c2cccnc2[C@H](C)OC)c2c3cc(ccc31)-c1csc(n1)C[C@H](NC(=O)[C@H](C(C)C)N(C)C(=O)N1CCCC13CCN(C)CC3)C(=O)N1CCC[C@H](N1)C(=O)OCC(C)(C)C2
4. CCn1c(-c2cccnc2[C@H](C)OC)c2c3cc(ccc31)-c1csc(n1)C[C@H](NC(=O)[C@H](C(C)C)N(C)C(=O)[C@@H]1CCN(C)[C@@H]1c1ccccc1)C(=O)N1CCC[C@H](N1)C(=O)OCC(C)(C)C2
5. CCn1c(-c2cccnc2[C@H](C)OC)c2c3cc(ccc31)-c1csc(n1)C[C@H](NC(=O)[C@H](C(C)C)N(C)C(=O)N1CC(N(C)S(C)(=O)=O)C1)C(=O)N1CCC[C@H](N1)C(=O)OCC(C)(C)C2 (atropisomer, axis not shown)
6. CCn1c(-c2cccnc2[C@H](C)OC)c2c3cc(ccc31)-c1csc(n1)C[C@H](NC(=O)[C@H](C(C)C)N(C)C(=O)N1CC(N)(C#N)C1)C(=O)N1CCC[C@H](N1)C(=O)OCC(C)(C)C2

1000 to 10000 nM
100 to 1000 nM
100 to 1000 nM
1000 to 10000 nM
100 to 1000 nM
100 to 1000 nM

Record IC50 for all entries; do not skip any.
1. CCn1c(-c2cccnc2[C@H](C)OC)c2c3cc(ccc31)-c1csc(n1)C[C@H](NC(=O)[C@H](C(C)C)N(C)C(=O)N(C)C[C@@H]1CCCN1C)C(=O)N1CCC[C@H](N1)C(=O)OCC(C)(C)C2
2. CCn1c(-c2cnccc2COC)c2c3cc(ccc31)-c1cc(O)cc(c1)C[C@H](NC(=O)[C@H](C(C)C)N(C)C(=O)[C@H]1CCN(C(=O)/C=C/CN(C)C)C1)C(=O)N1CCC[C@H](N1)C(=O)OCC(C)(C)C2
3. CCn1c(-c2cccnc2[C@H](C)OC)c2c3cc(ccc31)-c1csc(n1)C[C@H](NC(=O)[C@H](C(C)C)N(C)C(=O)N1CCN(C(=O)C3(N(C)C)CC3)CC1)C(=O)N1CCC[C@H](N1)C(=O)OCC(C)(C)C2 (atropisomer, axis not shown)
4. CCn1c(-c2cccnc2[C@H](C)OC)c2c3cc(ccc31)-c1cccc(c1)C[C@H](NC(=O)[C@@H](CN1CC[C@]3(CCN(C(=O)C#C[C@H]4COCCN4C)C3)C1=O)C(C)C)C(=O)N1CCCC(N1)C(=O)OCC(C)(C)C2 (some centres unmarked)

1. 1000 to 10000 nM
2. 100 to 1000 nM
3. 100 to 1000 nM
4. > 10000 nM

Dear colleague, could you send me IC50 for each of the items below? Thanks.
1. CCn1c(-c2cccnc2[C@H](C)OC)c2c3cc(ccc31)-c1csc(n1)C[C@H](NC(=O)[C@H](C(C)C)N(C)C(=O)N1C[C@H]3CN(C)C[C@H]31)C(=O)N1CCC[C@H](N1)C(=O)OCC(C)(C)C2
2. CCn1c(-c2cccnc2[C@H](C)OC)c2c3cc(ccc31)-c1csc(n1)C[C@H](NC(=O)[C@H](C(C)C)N(C)C(=O)N1CCC3(CC1)CN(C)CCO3)C(=O)N1CCC[C@H](N1)C(=O)OCC(C)(C)C2

["1000 to 10000 nM", "100 to 1000 nM"]
